Experiment: Systemic norepinephrine spillover and clearance with 3H-NE infusion, before and during nitroprusside
Assay type: in vivo, human
Details: human, plasma, intravenous, 0.9 μCi/mL/min; at rest, proband
QUANTITY NAME: clearance (mL/min)
Numbers only, in mL/min.

stdin: Can you share its clearance? I mean this compound: NC[C@H](O)c1ccc(O)c(O)c1 [NE, norepinephrine]
stdout: 1560

Reference source: patent US7094532B2
